molecular target: CDKs and other kinases (Homo sapiens); construct: other: CDK2A; residual activity (%) at 10 μM CDK2A; compound at 10 μM; assay: Radiometric kinase assay (Eurofins Pharma Discovery or Reaction Biology Corporation Kinase Profiler); assay type: biochemical; settings: CDK2A; compound at 10 μM; read-out: residual activity (%) at 10 μM CDK2A
remaining activity at 10 µM listing for selected compounds.
Record the value in %, omitting the unit from your answer.

Take a look at these entries with their results.
{"COMPOUND": "O[C@H]1CC[C@H](Nc2ncc(Cl)c(-c3cnc4ccc(-c5ccc(F)cc5)cn34)n2)CC1", "MEASURE_UNIT": "%", "remaining activity at 10 µM": 51}
{"COMPOUND": "Cc1cnc(N[C@H]2CC[C@H](N)CC2)nc1-c1cnc2ccc(Nc3ccncc3)cn12", "MEASURE_UNIT": "%", "remaining activity at 10 µM": 22}
{"COMPOUND": "C[C@]12C[C@]3(C)C[C@](O)(C1)C[C@](Nc1ncc(F)c(-c4cnc5ccc(Nc6cncnc6)cn45)n1)(C2)C3", "MEASURE_UNIT": "%", "remaining activity at 10 µM": 11}
{"COMPOUND": "Cc1cnc(N[C@H]2CC[C@H](N3CCC3)CC2)nc1-c1cnc2ccc(Nc3cncc(F)c3)cn12", "MEASURE_UNIT": "%", "remaining activity at 10 µM": 4}
{"COMPOUND": "Cc1cnc(N[C@H]2CC[C@H](N)CC2)nc1-c1cnc2cc(Nc3cccnc3)ccn12", "MEASURE_UNIT": "%", "remaining activity at 10 µM": 5}
{"COMPOUND": "Cc1ccc2ncc(-c3nc(N[C@H]4CC[C@H](N)CC4)ncc3F)n2c1", "MEASURE_UNIT": "%", "remaining activity at 10 µM": 2}
{"COMPOUND": "N[C@H]1CC[C@H](Nc2ncc(F)c(-c3cnc4ccc(-c5ncccc5F)cn34)n2)CC1", "MEASURE_UNIT": "%", "remaining activity at 10 µM": 4}
{"COMPOUND": "N[C@H]1CC[C@H](Nc2ncc(F)c(-c3cnc4ccc(-c5ccc(CN6CCOCC6)cc5)cn34)n2)CC1", "MEASURE_UNIT": "%", "remaining activity at 10 µM": 2}

Q: Value wanted: remaining activity at 10 µM (CDKs and other kinases (Homo sapiens)) of entry `Cc1cnc(N[C@H]2CC[C@H](O)CC2)nc1-c1cnc2ccc(-c3ccccc3)cn12`
Result: 3

Q: Any idea what remaining activity at 10 µM came out for `Cc1cnc(N[C@H]2CC[C@@H](N)CC2)nc1-c1cnc2ccc(Nc3cccnc3)cn12` on CDKs and other kinases (Homo sapiens)?
Result: 27

Q: Find remaining activity at 10 µM (CDKs and other kinases (Homo sapiens)) for the entry `Cc1cnc(NC2CCOCC2)nc1-c1cnc2ccc(Nc3cncnc3)cn12`
Result: 2

Q: So what remaining activity at 10 µM did `N[C@H]1CC[C@H](Nc2ncc(F)c(-c3cnc4ccc(Nc5cccnc5)cn34)n2)CC1` get with CDKs and other kinases (Homo sapiens)?
Result: 0

Q: Record lookup: for CDKs and other kinases (Homo sapiens), what remaining activity at 10 µM belongs to Cc1cnc(NC2CCCC(N)C2)nc1-c1cnc2ccc(Nc3cccnc3)cn12 (stereo not drawn) ?
Result: 28

Q: Any idea what remaining activity at 10 µM came out for `COc1ccc(Nc2ccc3ncc(-c4nc(N[C@H]5CC[C@H](N)CC5)ncc4C)n3c2)cn1` on CDKs and other kinases (Homo sapiens)?
Result: 0

Q: # value lookup — system CDKs and other kinases (Homo sapiens), readout remaining activity at 10 µM, item `Cc1cnc(N[C@H]2CC[C@@H](N)CC2)nc1-c1cnc2ccc(Nc3cncnc3)cn12`
Result: 31

Q: Could you share what remaining activity at 10 µM was measured for `Cc1cnc(N[C@H]2CC[C@@H](N3CCC3)CC2)nc1-c1cnc2ccc(-c3ccccc3)cn12` , tested on CDKs and other kinases (Homo sapiens)?
Result: 59

Q: Hi! What's the reported remaining activity at 10 µM for `C[C@]12C[C@]3(C)C[C@](O)(C1)C[C@](Nc1ncc(F)c(-c4cnc5ccc(-c6ccccc6)cn45)n1)(C2)C3` on CDKs and other kinases (Homo sapiens)?
Result: 61

Q: What value of remaining activity at 10 µM on CDKs and other kinases (Homo sapiens) does `COC(=O)[C@H]1CC[C@H](Nc2ncc(C)c(-c3cnc4ccc(Nc5cncnc5)cn34)n2)CC1` have?
Result: 38

###

target: CDK6/D3 (Homo sapiens); test: ADP Glo Kinase assay CDK6/D3; assay type: biochemical; settings: CDK6D3; read-out: CDK inhibition, Ki (μM) CDK6D3
Item-by-item account of Ki
Put down the number, then write its unit next to it.

Solved cases below.
{"COMPOUND": "Cc1cnc(N[C@H]2CC[C@H](N)CC2)nc1-c1cnc2ccc(Nc3cncc(F)c3)cn12", "Ki": "0.33 µM"}
{"COMPOUND": "N[C@H]1CC[C@H](Nc2ncc(F)c(-c3cnc4ccc(NCc5ccc(F)cc5)cn34)n2)CC1", "Ki": "1.71 µM"}
{"COMPOUND": "Cc1cnc(NC2CCC(N(C)C)CC2)nc1-c1cnc2ccc(Nc3cncnc3)cn12 (stereo not shown)", "Ki": "0.51 µM"}

Q: Reported Ki, compound `Cc1cnc(N[C@H]2CC[C@H](N3CC3)CC2)nc1-c1cnc2cc(Nc3cncnc3)ccn12` : ____
Result: 0.54 µM

###

target: CDK4/D1 (Homo sapiens); assay: ADP Glo Kinase assay CDK4/D1; type: biochemical; conditions: CDK4D1; read-out: CDK inhibition, Ki (μM) CDK4D1
Sequence (P11802 whole entry): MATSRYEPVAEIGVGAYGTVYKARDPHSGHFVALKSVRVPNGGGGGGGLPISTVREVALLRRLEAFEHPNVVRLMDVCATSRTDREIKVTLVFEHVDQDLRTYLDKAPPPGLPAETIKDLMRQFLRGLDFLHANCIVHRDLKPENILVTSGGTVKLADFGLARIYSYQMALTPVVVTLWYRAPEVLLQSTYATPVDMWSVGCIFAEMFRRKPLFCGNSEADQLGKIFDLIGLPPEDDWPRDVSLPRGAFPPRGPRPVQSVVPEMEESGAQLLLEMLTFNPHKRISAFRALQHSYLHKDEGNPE
Sequence (P24385 whole entry partner): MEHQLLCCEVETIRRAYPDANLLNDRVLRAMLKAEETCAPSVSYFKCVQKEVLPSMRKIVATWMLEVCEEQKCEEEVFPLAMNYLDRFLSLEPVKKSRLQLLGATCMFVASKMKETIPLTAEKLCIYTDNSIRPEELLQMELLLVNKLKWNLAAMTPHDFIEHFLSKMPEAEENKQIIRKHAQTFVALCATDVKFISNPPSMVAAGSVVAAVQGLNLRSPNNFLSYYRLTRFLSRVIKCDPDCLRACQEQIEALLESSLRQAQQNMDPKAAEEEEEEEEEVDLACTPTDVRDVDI
# reported Ki; entries follow

Examples with answers:
{"COMPOUND": "N[C@H]1CC[C@H](Nc2ncc(F)c(-c3cnc4ccc(NCc5ccc(F)cc5)cn34)n2)CC1", "RECORDED_RESULT": "0.691 µM"}
{"COMPOUND": "Cc1cnc(NC2CCC(N(C)C)CC2)nc1-c1cnc2ccc(Nc3cncc(F)c3)cn12 (centres unmarked)", "RECORDED_RESULT": "0.87 µM"}
{"COMPOUND": "Cc1cnc(N[C@H]2CC[C@H](NC(C)C)CC2)nc1-c1cnc2ccc(Nc3cncnc3)cn12", "RECORDED_RESULT": "2.21 µM"}
{"COMPOUND": "Cc1cnc(N[C@H]2CC[C@H](N)CC2)nc1-c1cnc2ccc(Nc3cncc(F)c3)cn12", "RECORDED_RESULT": "0.76 µM"}
{"COMPOUND": "N[C@H]1CC[C@H](Nc2ncc(Cl)c(-c3cnc4ccc(Nc5cncnc5)cn34)n2)CC1", "RECORDED_RESULT": "0.06 µM"}

Q: // lookup Ki | system=CDK4/D1 (Homo sapiens) | key= `N[C@H]1CC[C@H](Nc2ncc(F)c(-c3cnc4ccccn34)n2)CC1`
Result: 0.025 µM

Q: Missing value: Ki, CDK4/D1 (Homo sapiens), entry Cc1cnc(NC2CCC(NCC(F)(F)F)CC2)nc1-c1cnc2ccc(Nc3cncnc3)cn12 (centres unmarked) . Fill in?
Result: > 5 µM

###

biological target: CDK6/D3 (Homo sapiens, UniProt Q00534); assay: ADP Glo Kinase assay CDK6/D3; assay type: biochemical; settings: CDK6D3; compound at 10 μM; read-out: residual activity (%) at 10 μM CDK6D3
Sequence (Q00534 whole entry): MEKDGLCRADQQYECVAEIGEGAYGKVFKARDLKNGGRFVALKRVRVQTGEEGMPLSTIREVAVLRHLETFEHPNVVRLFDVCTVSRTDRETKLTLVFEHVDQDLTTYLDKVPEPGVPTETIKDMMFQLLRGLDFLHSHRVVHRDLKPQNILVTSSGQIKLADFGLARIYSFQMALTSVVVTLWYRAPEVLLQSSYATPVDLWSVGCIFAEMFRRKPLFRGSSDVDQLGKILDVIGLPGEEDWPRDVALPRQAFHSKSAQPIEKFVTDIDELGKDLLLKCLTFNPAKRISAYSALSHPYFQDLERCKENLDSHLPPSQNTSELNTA
Sequence (P30281 whole entry partner): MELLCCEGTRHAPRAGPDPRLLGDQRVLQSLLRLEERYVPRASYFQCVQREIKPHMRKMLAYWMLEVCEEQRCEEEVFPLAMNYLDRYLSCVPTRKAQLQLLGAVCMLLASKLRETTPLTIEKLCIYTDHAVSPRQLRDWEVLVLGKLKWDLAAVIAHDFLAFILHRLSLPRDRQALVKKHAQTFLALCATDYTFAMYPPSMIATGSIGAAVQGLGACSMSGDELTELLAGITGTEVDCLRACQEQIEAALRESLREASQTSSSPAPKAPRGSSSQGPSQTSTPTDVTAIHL
MEASURE: remaining activity at 10 µM (%)
Expressed in %, but write only the number.

Consider the reported remaining activity at 10 µM for these molecules:
{"SMILES_STRING": "CCOc1ccc(Nc2ccc3ncc(-c4nc(N[C@H]5CC[C@H](N)CC5)ncc4C)n3c2)cn1", "ASSAY_SYSTEM": "CDK6/D3 (Homo sapiens, UniProt Q00534)", "MEASURE_UNIT": "%", "remaining activity at 10 µM": 29}
{"SMILES_STRING": "Cc1cnc(N[C@H]2CC[C@H](N)CC2)nc1-c1cnc2ccc(Oc3cncnc3)cn12", "ASSAY_SYSTEM": "CDK6/D3 (Homo sapiens, UniProt Q00534)", "MEASURE_UNIT": "%", "remaining activity at 10 µM": 46}
{"SMILES_STRING": "N[C@H]1CC[C@H](Nc2ncc(F)c(-c3cnc4ccc(NC(=O)Cc5ccccc5)cn34)n2)CC1", "ASSAY_SYSTEM": "CDK6/D3 (Homo sapiens, UniProt Q00534)", "MEASURE_UNIT": "%", "remaining activity at 10 µM": 21}
{"SMILES_STRING": "Cc1cnc(N[C@H]2CN3CCC2CC3)nc1-c1cnc2ccc(Nc3cncnc3)cn12", "ASSAY_SYSTEM": "CDK6/D3 (Homo sapiens, UniProt Q00534)", "MEASURE_UNIT": "%", "remaining activity at 10 µM": 89}
{"SMILES_STRING": "N[C@H]1CC[C@H](Nc2ncc(F)c(-c3cnc4ccc(Nc5cccc(F)c5)cn34)n2)CC1", "ASSAY_SYSTEM": "CDK6/D3 (Homo sapiens, UniProt Q00534)", "MEASURE_UNIT": "%", "remaining activity at 10 µM": 4}
{"SMILES_STRING": "COc1ccc(-c2ccc3ncc(-c4nc(N[C@H]5CC[C@H](N)CC5)ncc4C)n3c2)cn1", "ASSAY_SYSTEM": "CDK6/D3 (Homo sapiens, UniProt Q00534)", "MEASURE_UNIT": "%", "remaining activity at 10 µM": 86}

Q: What value of remaining activity at 10 µM on CDK6/D3 (Homo sapiens, UniProt Q00534) does `Cc1cnc(N[C@H]2CC[C@H](N)CC2)nc1-c1cnc2ccc(-c3ccc(CN4CCOCC4)cc3)cn12` have?
Result: 89

Q: // map `Cc1cnc(N[C@H]2CC[C@H](N)CC2)nc1-c1cnc2ccc(-c3ccoc3)cn12` to recorded remaining activity at 10 µM (system: CDK6/D3 (Homo sapiens, UniProt Q00534))
Result: 29
